Cited source for all entries: the supplement of paper PMC10567573

B1: ZNF232 (parent)
chain: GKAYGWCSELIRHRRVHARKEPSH

- Variants of: B1
- procedure_details: protein stability index of a GFP-peptide fusion (GPS, HEK-293T) (PSI 1-6); higher = more stable;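 also: lentivirally expressed fusions sorted by FACS into six bins by GFP to DsRed ratio, PSI derived from sequencing read proportions per bin multiplied by bin number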
- experimental_parameters: c terminus: a fixed tail appended
endpoint_name: protein stability index

mutation_list | endpoint_name | obs_value
G5Y | protein stability index | 2.13
C7T | protein stability index | 3.26
R14S | protein stability index | 2.27
E9L | protein stability index | 2.73
K20F | protein stability index | 1.9
E9V | protein stability index | 1.21
L10W | protein stability index | 2.77
A18R | protein stability index | 3.28
L10A | protein stability index | 3.08
K20A | protein stability index | 3.19
P22Q | protein stability index | 3.38
A3I | protein stability index | 2.35
W6E | protein stability index | 3.35
S23A | protein stability index | 2.61
E21Y | protein stability index | 2.81
E21R | protein stability index | 3.3
K2E | protein stability index | 2.82
Y4I | protein stability index | 3.06
S8R | protein stability index | 2.99
E21P | protein stability index | 2.79
H17Y | protein stability index | 2.16
H24A | protein stability index | 3.08
S8E | protein stability index | 3.2
W6N | protein stability index | 3.98
G5K | protein stability index | 2.95
G5N | protein stability index | 3.56
P22W | protein stability index | 1.79
H24G | protein stability index | 3.7
H17T | protein stability index | 3.28
R19V | protein stability index | 2.52
I11C | protein stability index | 3.37
S23I | protein stability index | 2.48
V16P | protein stability index | 3.35
G5M | protein stability index | 2.94
R19G | protein stability index | 3.01
E21N | protein stability index | 3.24
